test.system: T1, 4H2883-AA
T1 chain: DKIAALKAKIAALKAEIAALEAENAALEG
measurement.description: two-hybrid library CCmax;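 further: natural log of median RNA to DNA barcode read ratio; higher means stronger binding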
measurement.conditions: mean of both orientations
endpoint.name: interaction score
// return a plain number; no unit text

Record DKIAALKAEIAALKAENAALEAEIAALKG [4H2642-AA] . Reported interaction score: -0.642

The reported value for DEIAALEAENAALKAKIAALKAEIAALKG [4H234-AA] in terms of interaction score is -1.27

In plain terms, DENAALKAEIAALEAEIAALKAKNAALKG [4H1552-AA] has a documented interaction score of 2.2

Data point: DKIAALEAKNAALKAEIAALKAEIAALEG [4H2505-AA] ; interaction score = -0.918

For record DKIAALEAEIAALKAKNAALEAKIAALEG [4H2165-AA] the listed interaction score is -1.67

The recorded interaction score for entry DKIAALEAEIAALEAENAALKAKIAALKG [4H2078-AA] equals 0.158

interaction score recorded for this binder, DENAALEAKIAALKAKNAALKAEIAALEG [4H1401-AA] , is -1.43
